Target: horse IgG Fc fragment
Assay: ELISA, coated antigen, E. coli supernatant
Each item that follows carries a reported absorbance at 450 nm.

Binder: SVG18 (VHH, not shown: large carriers) VHH: QVQLQQSGGGLVQPGGSLRLSCAASGFTFSSYAMSWVRQAPGKGLEWVSAINSGGDIISYADSVKGRFTISRDNAKNTLYLQMNSLKPEDTAVYYCAKSPIVRTYGGYDYWGQGTQVTVSS
Quantity unit: A450
absorbance at 450 nm: 0.072
//
Binder: SVG03 (VHH, not shown: large carriers) VHH: QVQLQESGGGLVQAGGSLRLSCAASGRTFSNYVMGWFRQAPGKEREFVSAISWNGVSTFYADSVKGRFTISRDNAKNTVYLQMNSLKPEDTAVYYCAADERFVVRYNYWGQGTQVTVSS
Quantity unit: A450
absorbance at 450 nm: 0.476
//
Binder: SVG06 (VHH) VHH: QVQLQESGGALVQPGGSLRLSCAASGFPFSAYDMTWVRQAPGQGLEWVSTIHKSGGITTYADSVKGRFTISRDNAKNTLYLQMNNLESEDTAVYYCAKALRAHNSDYVGRNALGSWGEGTLVTVSS
Quantity unit: A450
absorbance at 450 nm: 0.073
//
Binder: SVG07 (VHH, not shown: large carriers) VHH: QVQLQESGPGLVKPSQTLSLTCTVSGGSITTTAYAWSWIRQPPGKGLEWMGAIRFDGTTDYSPSLKSRISISRDTSNNQFSLRMSSVTPEDTAVYYCARYGVVSDHGGLDYWGQGTQVTVSS
Quantity unit: A450
absorbance at 450 nm: 0.099
//
Binder: SVG23 (VHH, not shown: large carriers) VHH: QVQLQESGGGLVQAGGSLRLSCAASGRAFGSYTMNWFRQAPGKERDFVAGIMSSGMNTWYADSVKGRFTISRDNAKNTVYLQMNSLKPEDTAVYYCASRPRSTMTSGRYLYDYWGQGTQVTVSS
Quantity unit: A450
absorbance at 450 nm: 0.072
//
Binder: SVG19 (VHH, not shown: large carriers) VHH: QVQLQQSGGGLVQPGGSLRLSCAASGFTFSSYAMSWVRQAPGKGLEWVSAINSGGGSTSYADSVKGRFTISRDNAKNTLYLQMNSLKPEDTAVYYCAKDFDPWGVGTGGYDYWGQGTQVTVSS
Quantity unit: A450
absorbance at 450 nm: 0.079
//
Binder: SVG13 (VHH) VHH: QVQLQESGGGLVQPGGSLRLSCEASGFTFDDYGMSWVRQAPGKGLEWVSSLTPNGGSTYYADSVKGRFTISRDNAKNTLYLQMNSLKPEDTALYYCAKNSYYGAMDYWGKGTLVTVSS
Quantity unit: A450
absorbance at 450 nm: 0.097
//
Binder: SVG24 (VHH, not shown: large carriers) VHH: QVQLQQSGGGLVQAGGSLRLSCAASGRTFSTYNIAWFRQAPGKEREFVTAITWGSGNTYYADSVKGRFTISRDNAKNTVFLQMNSLKPDDTAVYYCAARRSLGPTMAFAYEYWGQGTQVTVSS
Quantity unit: A450
absorbance at 450 nm: 1.67

Just for reference, patent US20240376185A1 is where these values come from.
